System: PBMC
assay explanation: Immunosuppressive activity in human PBMC assessed as inhibition of LPS-stimulated TNFalpha production at 10 ug/mL after 18 to 24 hrs by ELISA
Format: functional
Each record here notes measured inhibition at 10 µg/mL.
Note: unit % is implicit; provide only the numeric part.

Known inhibition at 10 µg/mL results, listed for orientation:
- molecule: "CC(=O)OC[C@]12[C@H](OC(C)=O)[C@H](OC(C)=O)[C@@H]3[C@@H](OC(C)=O)[C@@]14O[C@@]3(C)COC(=O)c1cccnc1CC[C@H](C)C(=O)O[C@@H]([C@H](OC(=O)c1ccco1)[C@@H]2OC(C)=O)[C@]4(C)O"
  inhibition at 10 µg/mL / %: 64
- molecule: "CC(=O)OC[C@]12[C@H](OC(C)=O)[C@H](OC(C)=O)[C@@H]3[C@@H](OC(C)=O)[C@@]14O[C@@]3(C)COC(=O)c1cccnc1C(C)C(C)C(=O)O[C@@H]([C@H](OC(C)=O)[C@@H]2OC(C)=O)[C@]4(C)O (some centres undefined) [EUONYMINE]"
  inhibition at 10 µg/mL / %: 55
- molecule: "CC(=O)OC[C@]12[C@H](OC(C)=O)[C@H](OC(C)=O)[C@@H]3[C@@H](OC(C)=O)[C@@]14O[C@@]3(C)COC(=O)c1cccnc1CC[C@@](C)(O)C(=O)O[C@@H]([C@H](OC(=O)c1ccccc1)[C@@H]2OC(C)=O)[C@]4(C)O"
  inhibition at 10 µg/mL / %: 2

From here, focus on the item given below.
Would you mind telling me what inhibition at 10 µg/mL value was observed for CC(=O)OC[C@]12[C@H](OC(C)=O)[C@H](OC(C)=O)[C@@H]3[C@@H](OC(=O)c4ccccc4)[C@@]14O[C@@]3(C)COC(=O)c1cccnc1CC[C@@](C)(OC(=O)c1ccccc1)C(=O)O[C@@H]([C@H](OC(C)=O)[C@@H]2OC(C)=O)[C@]4(C)O [WILFORNINE C] ?
-11
